# protocol.description: NCI Yeast Anticancer Drug Screen. Data for the cln2 rad14 strain (AID 165);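 further: 0% = growth equal to vehicle treated cultures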
# conditions.used: S. cerevisiae cln2 rad14 strain, at 50.0 µM, hits give high values
About 79,000 compounds went through this panel and 15% of them were active in at least one assay; those are over-represented in the sample as a whole.
measurement.label: growth inhibition (%)
Entry rule: numbers only, all in %.

O=c1c(O)c(-c2cccnc2)oc2ccc(Cl)cc12: 21.6
CC(C)OC(=O)Oc1ccc(Cl)cc1: -46.1
C=C1C(=O)[C@@]23CC[C@@H]4[C@@]5(C)CCC[C@@]4(OC5=O)[C@@]2(C)CC[C@@H]1C3: 89.3
Cc1c2ccccc2c(C)n2c1nc1cc3ccccc3cc12: 8.55

The compound Cc1ccc(C(C)C)c(O)c1NC(=S)N/N=C\c1cc(Cl)ccc1O showed growth inhibition equal to 7.6

The compound COC(=O)CC(CC(=O)OC)N1CC=CC1 showed growth inhibition equal to -15.1

* * *

Each entry below lists one item and its recorded growth inhibition value.
# protocol.description: NCI Yeast Anticancer Drug Screen. Data for the bub3 strain (AID 167)
# conditions.used: S. cerevisiae bub3 mutant strain, at 50.0 µM, hits give high values
# Protocol: Growth inhibition of yeast strains with defined genetic alterations is measured as a screen for potential anti-cancer activity. Selected strains with alterations in DNA damage repair or cell cycle control were exposed to compounds and growth inhibition was measured relative to vehicle treated controls. The strain used in this assay is bub3
Compounds without any hit were thinned out: in the full panel of roughly 79,000, 15% have a hit.
Entry rule: numbers only, all in %.

Take a look at these entries with their results.
O=C1c2c(nc3ccccc3c2-c2ccccc2)CN1Nc1ccccc1: -37.7
CC(O)CCC(C)O (stereo not drawn): 1.85
O=C(CCl)NCCc1ccccc1: 24.8
C/C(=N/NC(N)=S)c1c[nH]c(=O)[nH]c1=O: -5.95
CCC(=O)c1cc2c(cc1O)CC(C(=O)CC)c1ccccc1-2 (stereo not drawn): 11.2

The compound Cc1ccc(NC(=O)C(=O)CC(=O)c2c(C)n([O-])c3ccccc3[n+]2=O)cc1C showed growth inhibition equal to 0.2

The compound COc1cc(OC)cc(N2CCC(c3c(N)nc(N)nc3Cl)CC2)c1 showed growth inhibition equal to 15.2

The compound CCCCCC/C=C\CCCCCCCCCC1=CC(=O)C=C(OC)C1=O showed growth inhibition equal to -31.4

The compound O=C(/C=C/c1ccc(OCC(=O)N2CCN(c3ccccc3)CC2)cc1)c1ccc(Cl)cc1 showed growth inhibition equal to 2.7

The compound O=COCCO showed growth inhibition equal to 1.75

The compound Clc1ccc(CN2COc3c(ccc4ccccc34)C2)cc1Cl showed growth inhibition equal to 7.1

The compound C#CC(C)(O)CCCCCC (stereo not drawn) showed growth inhibition equal to 35

The compound CC(=O)Nc1ccc(/C=N/NC(=O)COCC(=O)N/N=C/c2ccc(NC(C)=O)cc2)cc1 showed growth inhibition equal to -3.2

The compound CN(C)c1ccc(/C=C/c2nc3ccc([N+](=O)[O-])cc3[nH]2)cc1 showed growth inhibition equal to 0.6

The compound Cc1nn(C(=O)c2ccncc2)c2c1C(c1ccccc1)SC(N)=N2 (stereo not drawn) showed growth inhibition equal to 15.1

The compound COc1ccc(/C=C(/C#N)C(N)=O)c(OC)c1 showed growth inhibition equal to -31.8

The compound C=CCOC(=O)C(C#N)C(C)CC(=O)OCC (stereo not drawn) showed growth inhibition equal to 5.25

The compound Cc1cccc2c1Oc1ccccc1C2NC(=O)c1ccc([N+](=O)[O-])cc1 (stereo not drawn) showed growth inhibition equal to -23.4

The compound Cc1nn2c(-c3ccccc3)cnnc2c1-c1ccccc1 showed growth inhibition equal to 6.75

The compound C=COCCC(C(=O)OCC)C(=O)OCC showed growth inhibition equal to 40.6

The compound O=C(OCCCCCCCCOC(=O)c1ccc([N+](=O)[O-])cc1)c1ccc([N+](=O)[O-])cc1 showed growth inhibition equal to -5.4

The compound CC(=O)C1=C(O)C(Cc2ccccc2)NC1=O (stereo not drawn) showed growth inhibition equal to -18.4

The compound Cn1c(=O)c(Br)cc2ccccc21 showed growth inhibition equal to 9.1

The compound CCOc1ccccc1/C=C/C(=O)O showed growth inhibition equal to -22.1

The compound O=C1C(=Nc2ccc(Cl)nc2)CC(c2ccccc2)N1c1ccc(Cl)nc1 (stereo not drawn) showed growth inhibition equal to 3

The compound CC1NC(=O)OC1C(C)(C)C (stereo not drawn) showed growth inhibition equal to -5.4

The compound CCC(=O)C12CCCC1=NC(=N)N=C2C1=NC(=N)N=C2CCCC21C(=O)CC (stereo not drawn) showed growth inhibition equal to -1.7

The compound COc1ccc2nc3cc(Cl)ccc3c(NCCNCC(C)(C)O)c2c1 showed growth inhibition equal to 27.1

* * *

Each entry below lists one item and its recorded growth inhibition value.
# protocol.description: NCI Yeast Anticancer Drug Screen. Data for the cln2 rad14 strain (AID 165);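 further: 0% = growth equal to vehicle treated cultures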
# conditions.used: S. cerevisiae cln2 rad14 strain, at 50.0 µM, hits give high values
This is part of a sample that, as a whole, favours compounds with a hit. Of some 79,000 tested, about 15% had one in any assay.
Entry rule: numbers only, all in %.

CCc1cccc(CC)c1NC(=O)CC1SC(N)=NC1=O (centres undefined): 9.8
C#CCC(O)c1ccc(OC)c(OCc2ccccc2)c1 (centres undefined): 4.4
O=C(Nc1ccccc1)Nc1cc(C(F)(F)F)ccc1Cl: -10.2
O=C(NC1CCCCC1Cl)C1CCCCC1 (centres undefined): 5.4
CCS(=O)(=O)N(CC(=O)O)Cc1ccccc1: 0.95
CSc1cnn(CCC#N)c(=O)n1: 2.4

The molecule O=C(O)C1CC(O)c2ccccc2C1c1ccccc1 (centres undefined) showed growth inhibition equal to 22.6

The molecule Nc1nc2c(=O)[nH]c(=O)[nH]c2n1C1OC(CO)C(O)C1O (centres undefined) showed growth inhibition equal to 4.9

The molecule CN1CCCS/C1=C1/SC(=S)N(c2ccccc2)C1=O showed growth inhibition equal to -5.75

* * *

# protocol.description: NCI Yeast Anticancer Drug Screen. Data for the bub3 strain (AID 167)
# conditions.used: S. cerevisiae bub3 mutant strain, at 50.0 µM, hits give high values
The panel holds about 79,000 compounds, 15% with a hit somewhere; the sample as a whole holds those more often.
measurement.label: growth inhibition (%)
Entry rule: numbers only, all in %.

Take a look at these entries with their results.
CC(=O)Nc1ccc(S(=O)(=O)SC(F)(F)F)cc1: 8.85
CCOC(=O)Nc1ccc(F)c(C(F)(F)F)c1: 11.6
O=c1cc[nH]c2c(Cl)cccc12: 2
CCOC(=N)c1cn(C2OC(CO)C(O)C2O)c2nc[nH]c(=O)c12 (configuration not stated): 16.2
COC(=O)c1ccc(C(=O)OC)c(NC(=O)CC(=O)c2ccc([N+](=O)[O-])cc2)c1: -0.5

The compound COC1(OC)CC2C(=O)N(Cc3ccccc3)C1C(S(=O)(=O)c1ccccc1)C2C(C)S(=O)(=O)c1ccccc1 (configuration not stated) showed growth inhibition equal to -26.7

The compound Cc1oc([N+](=O)[O-])cc1C(=O)O showed growth inhibition equal to -20.1

The compound O=C1c2ccccc2C(=O)N1CCc1ccccn1 showed growth inhibition equal to -0.45

The compound NC(=O)C1OC1(c1ccccc1)c1ccccc1 (configuration not stated) showed growth inhibition equal to 4.15

The compound OCc1ccccc1C(c1ccc(O)cc1)c1ccc(O)cc1 showed growth inhibition equal to 12.7

The compound C=C(Nc1ccc([N+](=O)[O-])cc1[N+](=O)[O-])c1c/c(=N\NC(N)=S)c2ccccc2o1 showed growth inhibition equal to 16.4

* * *

# protocol.description: NCI Yeast Anticancer Drug Screen. Data for the mec2-1 strain (AID 157)
# conditions.used: S. cerevisiae mec2-1 strain, at 50.0 µM, hits give high values
Compounds without any hit were thinned out: in the full panel of roughly 79,000, 15% have a hit. The source made the active and inactive calls. No stated cut-off is given here; in the data, active means growth inhibition above about 70%; inactive means the rest.
measurement.label: growth inhibition

Take a look at these entries with their results.
Nc1c(Cl)cc(C(=O)NC2CC2)cc1Cl: -27.8% (inactive)
Cc1cc(Br)cc2c1NC(=O)C(C)C2C (centres undefined): 12.7% (inactive)
CC1OC(OC2C(OC(=O)[C@@H]3CC(C)(C)C[C@@H]4C5=CC[C@@H]6[C@@]7(C)C[C@H](O)[C@H](OC8OC(CO)C(O)C(O)C8O)[C@@](C)(CO)C7[C@H](O)C[C@@]6(C)[C@]5(C)C[C@@H](O)[C@H]43)OCC(O)C2O)C(O)C(O)C1O (some centres undefined): -21.6% (inactive)

The molecule C/C=C/C=C/C(=O)CCC1(C)OC(=O)C(C)=C1O (centres undefined) showed growth inhibition equal to 0.45% (inactive)

The molecule CC[N+](C)(CC)CCl showed growth inhibition equal to -17.9% (inactive)

The molecule C=C(C)C(=O)O[C@H]1C[C@@]23O[C@@H]2CCC(=C[C@H]2OC(=O)C(=C)[C@H]12)COC3O (some centres undefined) showed growth inhibition equal to -12.6% (inactive)

The molecule CC1CC=C(C(O)C(C)C)C1 (centres undefined) showed growth inhibition equal to 6.2% (inactive)

The molecule N#CCc1ccccc1S(=O)(=O)O showed growth inhibition equal to -0.75% (inactive)

The molecule Cc1nn2c(-c3ccccc3)cnnc2c1-c1ccccc1 showed growth inhibition equal to -21.1% (inactive)

The molecule CCN(CC)C(=O)Cn1c(C)cc2ccccc21 showed growth inhibition equal to -18.1% (inactive)

The molecule CC(COc1ccccc1)OC=O (centres undefined) showed growth inhibition equal to -2.65% (inactive)

Origin of the recorded values: PubChem BioAssay (NCI)
